Molecular target: MDM2 (Homo sapiens, UniProt Q00987)
Sequence (Q00987 whole entry): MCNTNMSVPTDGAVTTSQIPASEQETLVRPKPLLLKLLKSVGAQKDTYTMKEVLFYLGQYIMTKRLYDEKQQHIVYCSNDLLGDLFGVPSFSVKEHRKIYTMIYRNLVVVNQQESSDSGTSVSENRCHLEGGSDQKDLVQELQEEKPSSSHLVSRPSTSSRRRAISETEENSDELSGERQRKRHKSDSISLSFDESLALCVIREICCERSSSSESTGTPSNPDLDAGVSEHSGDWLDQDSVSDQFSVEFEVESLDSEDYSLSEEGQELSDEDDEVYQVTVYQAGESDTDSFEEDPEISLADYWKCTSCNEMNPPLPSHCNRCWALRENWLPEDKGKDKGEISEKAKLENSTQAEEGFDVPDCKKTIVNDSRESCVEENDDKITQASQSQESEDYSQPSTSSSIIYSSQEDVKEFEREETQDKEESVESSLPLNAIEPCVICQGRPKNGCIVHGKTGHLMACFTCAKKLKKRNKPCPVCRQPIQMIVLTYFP
Assay: MDM2 binding screen: displacement of fluorescent p53 peptide probe FP53 (fluorescence polarization)
Conditions: Acid 14; initial screen; crude macrocycle reactions
Procedure: We screened Library 2 in 384-microwell plates by dispensing the target protein MDM2 and reporter peptide into the wells containing the macrocycle reactions. The products were screened for displacement of a p53-based fluorescent peptide from human MDM2. […] For each macrocycle, the MDM2 binding was measured once. One fluorescence anisotropy reading was taken with a Tecan Infinite F200 Pro fluorescence plate reader (excitation at 485 nm, emission at 535 nm) at 25 °C. […]
Numbered stars: 1 amine (or outer) side, 2 acyl side, 3 side chain; on linkers, the order of the positions; unused ones are H or OH. Bridge positions count the residues as written; N and C are the ends. Square brackets hold non-standard residues; d marks the D form. Peptide text beside a SMILES is read from it. * marks the point of attachment. 2Thenoyl(5-Cl) = O=C(c1ccc(Cl)s1)*; Cysteamide = C(CS[*:3])N[*:1]; Api = NC1(C(=O)O)CCNCC1; Mpa = O=C(O)CCS
measuredProperty: fraction fluorescent probe displaced, Screen

Below, each entry is followed by its recorded fraction fluorescent probe displaced, Screen result.
{"columns": ["compound", "endpointResult"],
 "data": [
  ["O=C1CCSSCCNC(=O)C2CC(NC(=O)c3ccc(Cl)s3)CN2C(=O)C(Cc2ccccc2)NC(=O)CCN1 (centres unmarked)", 0.14],
  ["O=C1CCSSCCNC(=O)C(Cc2ccccc2)NC(=O)C2CCCN2C(=O)C2(CCN(C(=O)c3ccc(Cl)s3)CC2)N1 (centres unmarked) [X D6 B1 F Acid 14] ([Mpa][Api](2Thenoyl(5-Cl))PF-Cysteamide; disulfide 1-C; configuration not given here)", -0.00483]
]}

(P) O=C1CCSSCCNC(=O)[C@@H]2C[C@H](NC(=O)c3ccc(Cl)s3)CN2C(=O)[C@H](Cc2ccccc2)NC(=O)c2cccc(c2)CN1
(Q) O=C1CCSSCCNC(=O)C2CN(C(=O)c3ccc(Cl)s3)CCN2C(=O)CCNC(=O)C(Cc2ccccc2)N1 (centres unmarked)
(R) O=C1CCSSCCNC(=O)c2cccc(c2)CNC(=O)[C@H](Cc2c[nH]c3ccccc23)NC(=O)[C@H](CNC(=O)c2ccc(Cl)s2)N1
[in] Write the entries in order, lowest recorded fraction fluorescent probe displaced, Screen first. Your reply should list the labels following the order given in the request.
[out] P, Q, R
(P: 0.0241, Q: 0.17, R: 0.26)
